Tested on: differentiated 3T3-L1 mouse adipocyte cells
Assay: Adipocyte glucose consumption in differentiated 3T3-L1 mouse adipocyte cells (loss of glucose from medium, colorimetric)
Assay type: cell-based
Settings: compound 10 μM, 22 to 24 hours, differentiated 3T3-L1 adipocytes, compound/DMSO, read-out: Glucose consumption (fold change) Mean

- compound: "CCCCC1CCc2c(c3cccc(C(=O)O)c3n2Cc2cccc(C#N)c2)C1 (stereo not drawn)"
  fold induction at 10 µM: 1.14
- compound: "CCCCCCC1CCCc2c(n(Cc3cccc(C#N)c3)c3c(C(=O)O)cccc23)C1 (stereo not drawn)"
  fold induction at 10 µM: 1.26
- compound: "CCCCCCC1CCCc2c(n(Cc3ccc(C#N)s3)c3c(C(=O)O)cccc23)C1 (stereo not drawn)"
  fold induction at 10 µM: 1.05
- compound: "CCCCC1CCCc2c(n(Cc3ccccc3F)c3c(C(=O)O)cccc23)C1 (stereo not drawn)"
  fold induction at 10 µM: 1.11
- compound: "CCC1CCc2c(c3cccc(C(=O)O)c3n2Cc2cccc(C#N)c2)C1 (stereo not drawn)"
  fold induction at 10 µM: 1.08
- compound: "CCCCCC1CCc2c(c3cccc(C(=O)O)c3n2Cc2cccc(C#N)c2)C1 (stereo not drawn)"
  fold induction at 10 µM: 1.17
- compound: "CCCC1CCc2c1n(Cc1cccc(C(N)=O)c1)c1c(C(=O)O)cccc21 (stereo not drawn)"
  fold induction at 10 µM: 1.18
- compound: "CCCCC1CCCc2c(n(Cc3cccc(C(N)=O)c3)c3c(C(=O)O)cccc23)C1 (stereo not drawn)"
  fold induction at 10 µM: 1.12
- compound: "CCCCCCC1CCCc2c(n(Cc3cccc(C(=O)O)n3)c3c(C(=O)O)cccc23)C1 (stereo not drawn)"
  fold induction at 10 µM: 0.96
- compound: "CCCCC1CCc2c(n(Cc3cccc(C(N)=O)c3)c3c(C(=O)O)cccc23)C1 (stereo not drawn)"
  fold induction at 10 µM: 1.1
- compound: "CCCCCCC1CCCc2c(n(Cc3cccc(C(N)=O)c3)c3c(C(=O)O)cccc23)C1 (stereo not drawn)"
  fold induction at 10 µM: 1.26
- compound: "CCC1CCCc2c1n(Cc1cccc(C(N)=O)c1)c1c(C(=O)O)cccc21 (stereo not drawn)"
  fold induction at 10 µM: 0.94
